Molecular target: adrenergic α1 receptors, human brain tissue (human)
Assay: radiolabeled competitive binding assay, human brain tissue
pKd: −log10 of the molar value. Square brackets hold non-standard residues; d marks the D form. Ends that are not written are not given here. Ala(indol-4-yl) = N[C@@H](Cc1cccc2[nH]ccc12)C(=O)O

- binder: "[dK]RP[Ala(indol-4-yl)]IL (NT(8-13) analog) [NT67L]"
  pKd: 5.16

Cited source for all entries: patent US7642231
